Molecular target: ACE (Homo sapiens)
Sequence (P12821 30-1306, species assumed): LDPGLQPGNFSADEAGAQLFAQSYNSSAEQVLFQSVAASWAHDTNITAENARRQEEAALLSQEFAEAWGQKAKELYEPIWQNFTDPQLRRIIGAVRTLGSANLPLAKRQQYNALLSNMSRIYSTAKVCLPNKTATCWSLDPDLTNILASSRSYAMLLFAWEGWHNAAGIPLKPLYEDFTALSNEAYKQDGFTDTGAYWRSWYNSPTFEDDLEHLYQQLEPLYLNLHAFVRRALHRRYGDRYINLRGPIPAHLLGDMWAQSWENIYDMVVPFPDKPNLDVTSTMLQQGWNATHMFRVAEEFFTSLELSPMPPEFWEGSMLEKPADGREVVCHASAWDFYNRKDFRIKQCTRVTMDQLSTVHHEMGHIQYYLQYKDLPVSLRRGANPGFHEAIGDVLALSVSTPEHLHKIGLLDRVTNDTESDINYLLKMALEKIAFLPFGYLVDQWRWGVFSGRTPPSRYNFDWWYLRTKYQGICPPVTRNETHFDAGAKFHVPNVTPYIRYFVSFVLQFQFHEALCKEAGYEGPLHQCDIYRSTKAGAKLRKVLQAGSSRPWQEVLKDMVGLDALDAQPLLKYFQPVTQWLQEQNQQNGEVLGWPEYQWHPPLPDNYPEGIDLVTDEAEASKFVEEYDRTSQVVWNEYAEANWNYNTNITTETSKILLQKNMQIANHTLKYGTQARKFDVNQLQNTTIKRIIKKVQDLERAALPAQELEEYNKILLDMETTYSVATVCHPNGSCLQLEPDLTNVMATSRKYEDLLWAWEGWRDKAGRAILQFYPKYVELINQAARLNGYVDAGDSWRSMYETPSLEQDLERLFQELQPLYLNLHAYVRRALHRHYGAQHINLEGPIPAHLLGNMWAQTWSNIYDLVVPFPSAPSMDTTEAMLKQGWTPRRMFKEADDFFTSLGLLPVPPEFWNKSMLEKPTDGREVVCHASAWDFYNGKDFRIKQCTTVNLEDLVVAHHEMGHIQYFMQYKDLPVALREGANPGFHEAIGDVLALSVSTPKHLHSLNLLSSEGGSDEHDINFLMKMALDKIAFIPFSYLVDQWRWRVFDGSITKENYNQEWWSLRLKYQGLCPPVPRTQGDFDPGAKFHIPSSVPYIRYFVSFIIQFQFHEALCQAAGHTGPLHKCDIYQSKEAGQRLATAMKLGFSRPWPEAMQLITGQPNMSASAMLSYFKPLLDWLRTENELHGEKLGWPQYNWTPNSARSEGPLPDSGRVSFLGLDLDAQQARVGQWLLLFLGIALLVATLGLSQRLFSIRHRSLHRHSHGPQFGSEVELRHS
Assay: biochemical
Protocol: An online tool (https://www.genscript.com/sms2/random_protein.html accessed on 1 March 2023) was used to randomly generate peptides in order to test the efficiency of the model. The top peptides with a small number of IC50 values were selected for synthesis. […] The concentration of hippuric acid (Hip, the reaction product) was measured by HPLC with a C18 column (5 µm, 250 mm × 4.6 mm). […] The absorbance at 228 nm was monitored. The concentration of HA was calculated based on its standard curve. […]
Peptide text beside a SMILES is read from it.
Please provide measured IC50 for the entries that follow.
Record the value in nM, omitting the unit from your answer.

For the molecule CC(C)C[C@H](NC(=O)[C@H](C)N)C(=O)N1CCC[C@H]1C(=O)N[C@@H](CC(=O)O)C(=O)O [ALPD] (H-ALPD-OH) , the measured IC50 on ACE (Homo sapiens) was 1550

For the molecule N=C(N)NCCC[C@H](NC(=O)[C@H](Cc1c[nH]cn1)NC(=O)[C@H](CC(=O)O)NC(=O)[C@@H](N)Cc1c[nH]cn1)C(=O)O [HDHR] (H-HDHR-OH) , the measured IC50 on ACE (Homo sapiens) was 590

For the molecule CC[C@H](C)[C@H](NC(=O)[C@@H](N)Cc1ccccc1)C(=O)O [FI] (H-Phe-Ile-OH) , the measured IC50 on ACE (Homo sapiens) was 310

For the molecule CC(C)[C@H](NC(=O)CN)C(=O)N1CCC[C@H]1C(=O)N[C@@H](CCCCN)C(=O)O [GVPK] (H-GVPK-OH) , the measured IC50 on ACE (Homo sapiens) was 250

For the molecule C[C@H](NC(=O)[C@H](CCCCN)NC(=O)[C@H](CC(=O)O)NC(=O)[C@@H](N)Cc1ccccc1)C(=O)O [FDKA] (H-FDKA-OH) , the measured IC50 on ACE (Homo sapiens) was 600

For the molecule CC[C@H](C)[C@H](NC(=O)[C@@H]1CCCN1C(=O)[C@H](CCCCN)NC(=O)[C@@H](N)CC(C)C)C(=O)O [LKPI] (H-LKPI-OH) , the measured IC50 on ACE (Homo sapiens) was 390

For the molecule C[C@H](NC(=O)[C@@H]1CCCN1C(=O)CN)C(=O)N[C@@H](Cc1ccc(O)cc1)C(=O)O [GPAY] (H-GPAY-OH) , the measured IC50 on ACE (Homo sapiens) was 370

For the molecule CC(C)C[C@H](NC(=O)[C@@H](NC(=O)[C@@H](N)CC(C)C)C(C)C)C(=O)O [LVL] (H-Leu-Val-Leu-OH) , the measured IC50 on ACE (Homo sapiens) was 320
